Field: Sox17 Intensity % of positive control. Provide a value for each of the molecules that follow.
Test system: H1 human embryonic stem cells
EXPERIMENT NOTES: Primary screening: definitive endoderm differentiation in the absence of activin A, cell number and SOX17 (Example 3)
Type: cell-based
MEASUREMENT CONDITIONS: Table 2 hit subset of primary screening, 2.5 μM, no activin A

| MOLECULE | Sox17 Intensity % of positive control |
| --- | --- |
| CN1CCC(=O)NCCCNc2ncccc2-c2ncnc(n2)Nc2cccc(c2)C1 [Compound 39] | 35.2 % of positive control |
| O=C1NCCCc2cncc(c2)-c2ncnc(n2)Nc2cccc(c2)CN2CCC1CC2 [Compound 22] | 72.4 % of positive control |
| O=C1NCCCc2cncc(c2)-c2ncnc(n2)Nc2cccc(c2)CN2CCCC1C2 (stereo not shown) [Compound 17] | −0.7 % of positive control |

Consider the additional molecule presented here.
## Input I'm curious: which Sox17 Intensity % of positive control was measured for CCN1CCCc2cccc(c2)-c2ncnc(n2)Nc2cccc(c2)CCNC(=O)C1 [Compound 29] tested on H1 human embryonic stem cells?
## Output 34.5 % of positive control

Values compiled from patent US9593305B2.
